- test-target: NF-kB p50/p50 homodimer (NFKB1) (Homo sapiens, UniProt P19838 P19838:1-433)
- Sequence (P19838 1-433, one chain of several): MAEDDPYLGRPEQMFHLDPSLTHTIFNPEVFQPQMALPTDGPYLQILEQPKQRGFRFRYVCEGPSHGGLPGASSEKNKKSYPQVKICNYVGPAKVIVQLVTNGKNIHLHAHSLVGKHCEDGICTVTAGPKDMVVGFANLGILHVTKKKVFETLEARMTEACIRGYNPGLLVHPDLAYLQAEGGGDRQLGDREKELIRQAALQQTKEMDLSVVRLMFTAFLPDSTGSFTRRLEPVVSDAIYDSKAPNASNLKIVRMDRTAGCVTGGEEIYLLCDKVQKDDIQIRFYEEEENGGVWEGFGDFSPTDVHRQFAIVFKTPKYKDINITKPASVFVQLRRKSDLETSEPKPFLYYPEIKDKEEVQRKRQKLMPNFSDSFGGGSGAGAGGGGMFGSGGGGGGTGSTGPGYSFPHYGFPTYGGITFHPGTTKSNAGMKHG
- method-summary: EMSA; competition vs 32P 113/114 probe
- study-conditions: protein: extract; tags: none; nuclear extract of LPS-stimulated THP-1 cells; chain copies: 2 (stated homodimer)
property-label: IC50
Record the result as number plus unit.

Task: Query: IC50; subject: decoy 141 A-Z-2 (dsDNA) DNA 1: GTTGAGGGACTTTCCAGG DNA 2: CCTGGAAAGTCCCTCAAC
Output: 10 fold molar excess

Task: Try decoy 123 A-W (dsDNA) DNA 1: CTCGGGACTTTCCTGT DNA 2: ACAGGAAAGTCCCGAG next.
Output: 10 fold molar excess

Task: What about decoy 195 C-V (dsDNA) DNA 1: TCGGGGACTTTCCCTC DNA 2: GAGGGAAAGTCCCCGA ?
Output: 9 fold molar excess
